# System: HIV-1
# Assay Setup: Experiment 1; H9 cells; 100 μM
Ends that are not written are not given here.
Property Measured: Day 10 RT HIV-1 (OD)
Numeric answer only, unit OD assumed.

Exercise: What measured Day 10 RT HIV-1 is associated with Gly-His-Lys (Gly-His-Lys-NH2) [GHK-NH2] on HIV-1?
Key: 2.151

Exercise: Param item: Lys-Ala-Arg (Lys-Ala-Arg-NH2) [KAR-NH2]
Key: 2.779

Exercise: Param item: Gly-Pro-Gln (Gly-Pro-Gln-NH2) [GPQ-NH2]
Key: 1.965

Exercise: Param item: Iso-Leu-Lys (Ile-Leu-Lys-NH2) [ILK-NH2]
Key: 2.033

Exercise: Param item: Ala-Cys-Gln (Ala-Cys-Gln-NH2) [ACQ-NH2]
Key: 0.904

Exercise: Param item: Lys-Ala-Leu (Lys-Ala-Leu-NH2) [KAL-NH2]
Key: 1.995

Exercise: Param item: Ala-Arg-Val (Ala-Arg-Val-NH2) [ARV-NH2]
Key: 1.528

Exercise: Param item: Gly-Ala-Thr (Gly-Ala-Thr-NH2) [GAT-NH2]
Key: 1.565

Exercise: Param item: His-Lys-Ala (His-Lys-Ala-NH2) [HKA-NH2]
Key: 2.546

Exercise: Param item: Leu-Lys-Ala (Leu-Lys-Ala-NH2) [LKA-NH2]
Key: 2.429
